Origin of measurements: patent EP0920441B1

- subjectOfTest: humanem Estrogenrezeptor (Homo sapiens)
- Construct: expressed in transfected cells; host or cells: HeLa cells, transiently transfected with HEGO
- Sequence (P03372 1-595): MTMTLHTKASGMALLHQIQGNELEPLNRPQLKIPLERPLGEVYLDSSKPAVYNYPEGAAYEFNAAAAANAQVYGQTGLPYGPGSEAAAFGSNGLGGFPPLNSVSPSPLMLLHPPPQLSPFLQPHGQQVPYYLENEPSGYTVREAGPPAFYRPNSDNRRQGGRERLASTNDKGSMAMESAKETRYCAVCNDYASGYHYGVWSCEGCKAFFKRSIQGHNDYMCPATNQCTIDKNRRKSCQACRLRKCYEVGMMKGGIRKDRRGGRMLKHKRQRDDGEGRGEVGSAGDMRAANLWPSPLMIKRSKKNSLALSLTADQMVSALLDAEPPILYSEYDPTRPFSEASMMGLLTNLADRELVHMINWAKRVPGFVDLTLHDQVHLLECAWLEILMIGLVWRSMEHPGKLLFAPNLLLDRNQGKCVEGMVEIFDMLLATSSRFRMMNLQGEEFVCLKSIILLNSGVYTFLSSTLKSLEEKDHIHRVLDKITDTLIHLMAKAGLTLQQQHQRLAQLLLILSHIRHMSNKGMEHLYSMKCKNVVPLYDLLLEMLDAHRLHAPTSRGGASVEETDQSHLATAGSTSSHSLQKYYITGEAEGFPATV
- assayInfo: Transactivation assay for antiestrogenic activity in HeLa cells (HEGO + Vit-TK-CAT reporter)
- Assay type: cell-based
- measurementParameters: Hela cells transiently transfected with HEGO and Vit-TK-CAT; in presence of 0,1 nM Estradiol; read-out: IC50 [nM] Hela-Zellen
# IC50 annotations
// return numeric value only (unit: nM, not printed)

- molecule: "CN(CCCCC[C@@H]1Cc2cc(O)ccc2[C@@H]2[C@@H]1[C@@H]1CC[C@H](O)[C@@]1(C)C[C@@H]2F)CCCSCCCC(F)(F)C(F)(F)F [Beispiel 12]"
  valueUnit: "nM"
  IC50: 0.06
- molecule: "CN(CCCCC[C@@H]1Cc2cc(O)ccc2[C@H]2CC[C@@]3(C)[C@@H](C[C@@H](F)[C@]3(C)O)[C@H]12)CCCS(=O)(=O)CCCC(F)(F)C(F)(F)F [Beispiel 18]"
  valueUnit: "nM"
  IC50: 0.05
- molecule: "CN(CCCCC[C@@H]1Cc2cc(O)ccc2[C@H]2CC[C@@]3(C)C(=CC[C@@H]3O)[C@H]12)CCCS(=O)(=O)CCCC(F)(F)C(F)(F)F [Beispiel 25]"
  valueUnit: "nM"
  IC50: 0.06
- molecule: "CN(CCCCC[C@@H]1Cc2cc(O)ccc2[C@@H]2[C@@H]1[C@@H]1CC[C@](C)(O)[C@@]1(C)C[C@@H]2F)CCCSCCCC(F)(F)C(F)(F)F [Beispiel 36]"
  valueUnit: "nM"
  IC50: 0.05

For C[C@]12C[C@H](F)[C@@H]3c4ccc(O)cc4C[C@@H](CCCCCN4CCC[C@H]4CSCCCC(F)(F)C(F)(F)F)[C@H]3[C@@H]1CC[C@@H]2O [Beispiel 29] the molecule record lists IC50 as 0.13

GET /value?item= C[C@]1(O)CC[C@H]2[C@@H]3[C@H](CCCCCN4CCC[C@H]4CSCCCC(F)(F)C(F)(F)F)Cc4cc(O)ccc4[C@H]3[C@@H](F)C[C@@]21C [Beispiel 31] &field=IC50 returns 0.1

Briefly, IC50 measured for CN(CCCCC[C@@H]1Cc2cc(O)ccc2[C@H]2CC[C@@]3(C)[C@@H](C[C@@H](F)[C@]3(C)O)[C@H]12)CCCSCCCC(F)(F)C(F)(F)F [Beispiel 15] : 0.06
